- test system: T1, 4H2253-AA
- T1 chain: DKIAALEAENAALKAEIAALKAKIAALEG
- test description: two-hybrid library CCmax;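 also: natural log of median RNA to DNA barcode read ratio; higher means stronger binding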
- setup conditions: mean of both orientations
observed property: interaction score

binder	interaction score
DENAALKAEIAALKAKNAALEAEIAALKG [4H1650-AA]	-1.47
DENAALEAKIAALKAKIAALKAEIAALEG [4H1385-AA]	-1.44
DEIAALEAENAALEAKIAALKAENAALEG [4H171-AA]	-1.44
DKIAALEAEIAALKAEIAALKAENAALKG [4H2124-AA]	-1.14
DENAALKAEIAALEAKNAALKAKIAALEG [4H1597-AA]	-1.29

P = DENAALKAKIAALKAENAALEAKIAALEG [4H1877-AA]
Q = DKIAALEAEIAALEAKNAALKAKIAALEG [4H2109-AA]
R = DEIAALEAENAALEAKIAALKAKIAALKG [4H174-AA]
Asked: Rank by interaction score (largest to smallest). # format: label list in the order the request specifies
Given back: R, P, Q

Value source: paper PMC10397247
